Value source: PubChem BioAssay (NCATS)

Test system: HeLa
Assay: Primary qHTS to identify gynecologic anti-cancer compounds using libraries of approved drugs and bioactive compounds (AID 1345084); also: nearly all actives have a fitted effect of over 55% in size
Settings: Gynecologic cancer cell panel viability, ATPlite luminescence, 48 h; series mostly up to 57.5 µM
Inconclusive results are not listed. The source made the active and inactive calls. Calls follow the shape of the dose curve; as a rule, active = well fitted cell-killing curve with a large enough effect; inconclusive = small, poorly fitted or top-dose-only effect, or effect the other way; inactive = flat fitted curve, though single readings scatter.
The reply should be one of these categories: active, inactive

Input line: Query: recorded result category for CC[C@@H]1C[C@H]2CC[C@H](O2)[C@H](C)C(=O)O[C@@H](C)C[C@@H]2CC[C@@H](O2)[C@@H](C)C(=O)O[C@H](C)C[C@H]2CC[C@H](O2)[C@H](C)C(=O)O[C@@H](C)C[C@@H]2CC[C@@H](O2)[C@@H](C)C(=O)O1 in this test
Output line: active

Input line: Query: recorded result category for Fc1cc(F)c2c(c1)C1C=CCC1C(c1cccnc1)N2 (stereo not drawn) in this test
Output line: active

Input line: Query: recorded result category for CC(=O)OC[C@]12C[C@H](OC(=O)CC(C)C)C(C)=C[C@H]1O[C@@H]1[C@H](O)[C@@H](OC(C)=O)[C@@]2(C)[C@@]12CO2 in this test
Output line: active

More entries:
Input line: Query: recorded result category for C=CCN1CCC2(C)c3cc(O)ccc3C[C@H]1[C@H]2C in this test
Output line: inactive

Input line: Query: recorded result category for CC1=C[C@H]2O[C@@H]3[C@H](O)[C@@H](O)[C@](C)([C@@]2(CO)C[C@@H]1O)[C@]31CO1 in this test
Output line: active

Input line: Query: recorded result category for C/C=C1/CN2CC[C@]34C(=Nc5ccc(OC)cc53)C2C[C@@H]1C4(CO)C(=O)OC (stereo partly drawn) in this test
Output line: inactive

Input line: Query: recorded result category for C[C@]12CCC(=O)C=C1CC[C@@H]1[C@@H]2[C@@H](O)C[C@]2(C)C(=O)CC[C@@H]12 in this test
Output line: inactive

Input line: Query: recorded result category for Cc1ccccc1C1=CCN(C)CC1 in this test
Output line: inactive

###

Test system: KB-3-1
Assay: Cytotoxic Profiling of Annotated Libraries Using Quantitative High-Throughput Screening (AID 1296008); also: % is scaled to controls: 0 for no effect and ±100 for the full control effect; nearly all actives have a fitted effect of over 60% in size
Settings: Five cell lines viability, CellTiter-Glo ATP luminescence, 48-72 h; stronger effect = lower value
Records with an inconclusive call do not appear. Calls of active or inactive are those of the source. The call rests on the fitted dose curve; in most records, active means well fitted inhibition curve with a large enough effect; inconclusive means small, poorly fitted or top-dose-only effect; inactive means flat fitted curve, though single readings scatter.
assay.metric: max response

Looking up CCN(CC)/[N+]([O-])=N/O , I see its max response listed as -8.01% (inactive)

Looking up CCC1(O)CCC2C3CCC4=CC(=O)CCC4C3CCC21CC (stereo not drawn) , I see its max response listed as -10.9% (inactive)

Looking up CCCCNC(C)(C)[P+](=O)O , I see its max response listed as 5.36% (inactive)

Looking up CO[C@H]1C[C@H](O[C@H]2CC[C@@]3(C)C(=CCC4C3CC[C@]3(C)[C@@H](C5=CC(=O)OC5)CC[C@]43O)C2)O[C@@H](C)[C@@H]1O[C@@H]1O[C@H](CO[C@@H]2O[C@H](CO)[C@@H](O)[C@H](O)[C@H]2O)[C@@H](O)[C@H](O)[C@H]1O (stereo partly drawn) , I see its max response listed as 4.69% (inactive)

Looking up C#CCO[C@H]1CN2CCC1CC2 , I see its max response listed as 2.91% (inactive)

Turning now to a further record.
Looking up CC(=O)OC[C@]12[C@H](OC(C)=O)C(=O)[C@@H]3[C@@H](O)[C@@]14O[C@@]3(C)COC(=O)c1cccnc1[C@@H](C)[C@H](C)C(=O)O[C@@H]([C@H](OC(C)=O)[C@@H]2OC(C)=O)[C@]4(C)O , I see its max response listed as 7.87% (inactive)

###

Assay: qHTS for Inhibitors of the Functional Ribonucleoprotein Complex (vRNP) of Lymphocytic Choriomeningitis Arenaviruses (LCMV): Viability assay - alamar blue signal for LCMV Primary Screen (AID 1347085); also: % is scaled to controls: 0 for no effect and ±100 for the full control effect; nearly all actives have a fitted effect of over 80% in size
Details: alamar blue viability counter-screen, LCMV vRNP screen cells; series mostly up to 57.5 µM
Results filed as inconclusive are left out. Activity calls are given as the source filed them. The call rests on the fitted dose curve; tested in HEK293 reporter line.
The reply should be one of these categories: t for active, f for inactive

Input line: Query: recorded result category for Nc1[nH]c(=O)nc2c1ncn2C1OC(CO)C(O)C1O (stereo not given) in this test
Output line: f

Input line: Query: recorded result category for Nc1ccc(N2C(=O)c3ccccc3C2=O)c(Cl)c1 in this test
Output line: f

Input line: Query: recorded result category for O=c1cc(-c2ccccc2)oc2cc(O)cc(O)c12 in this test
Output line: f

Input line: Query: recorded result category for O=C(Nc1nnc(-c2ccco2)o1)c1cc(-c2ccccc2)nc2ccccc12 in this test
Output line: f

Input line: Query: recorded result category for N[C@H](C(=O)O)c1cc(O)cc(O)c1 in this test
Output line: f

Input line: Query: recorded result category for COc1ccc(C(=O)/C=C/c2ccc(OC)cc2OC)c(O)c1 in this test
Output line: f

Input line: Query: recorded result category for Nc1ncnc2c1nc(Sc1ccc(Cl)cc1)n2[C@H]1OC2COP(=O)(O)O[C@@H]2C1O (stereo not given in full) in this test
Output line: f

Input line: Query: recorded result category for O=C(CCc1ccc(O)cc1)c1c(O)cc(O)cc1O[C@@H]1O[C@H](CO)[C@H](O)[C@H](O)[C@H]1O in this test
Output line: f

###

Target: Phenylethanolamine N-methyltransferase (Homo sapiens) (UniProt P11086)
Sequence (P11086 whole entry, looked up): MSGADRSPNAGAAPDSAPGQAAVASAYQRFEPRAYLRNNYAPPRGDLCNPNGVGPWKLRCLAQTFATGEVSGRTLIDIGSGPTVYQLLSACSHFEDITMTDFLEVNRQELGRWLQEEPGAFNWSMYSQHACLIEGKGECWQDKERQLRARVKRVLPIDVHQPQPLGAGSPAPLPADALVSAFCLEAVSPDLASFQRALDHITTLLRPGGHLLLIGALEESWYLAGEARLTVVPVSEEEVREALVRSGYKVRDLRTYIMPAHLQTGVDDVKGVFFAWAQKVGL
Assay: Confirmatory Screen for Target Class Profiling of Small Molecule Inhibitors of Methyltransferases (AID 1745852)
Conditions: MTase-Glo luminescence, SAH detection, recombinant enzyme; measured here: PNMT max response; stronger effect = lower value
assay.metric: activity
Quick note: unit goes after the number.

Example entries begin here.
Looking up C#C[C@]1(O)CC[C@H]2[C@@H]3CC[C@H]4Cc5nc6nc7ccccc7n6cc5C[C@]4(C)[C@H]3CC[C@@]21C , I see its activity listed as -31.4%

Looking up CCCCN1[C@@H]2CC[C@H]1CC(OC(c1ccc(F)cc1)c1ccc(F)cc1)C2 (some centres undefined) , I see its activity listed as 3.98%

Looking up O=C1NC(=O)c2c1c1c3ccccc3[nH]c1c1[nH]c3ccccc3c21 , I see its activity listed as -3.39%

Turning now to a further record.
Looking up N#Cc1cn([C@@H]2O[C@H](CO)[C@H](O)[C@@H]2O)c2ncnc(N)c12 , I see its activity listed as -99.9%

###

Experiment: qHTS for Inhibitors of the Functional Ribonucleoprotein Complex (vRNP) of Lassa (LASV) Arenavirus: LASV Primary Screen - GLuc reporter signal (AID 1347082); also: nearly all actives have a fitted effect of over 60% in size
Settings: LASV minigenome vRNP, Gaussia luciferase reporter; series mostly up to 57.5 µM
Inconclusive results are not listed. Calls of active or inactive are those of the source. The call rests on the fitted dose curve; tested in HEK293 reporter line.
The reply should be one of these categories: active, inactive

Input line: Query: recorded result category for COc1ccccc1N1CCN(CCCNc2c(C)c(=O)n(C)c(=O)n2C)CC1 in this test
Output line: inactive

Input line: Query: recorded result category for C#C[C@]1(O)CC[C@H]2[C@@H]3CCC4=Cc5oncc5CC4(C)[C@H]3CCC21C (some centres undefined) in this test
Output line: inactive

Input line: Query: recorded result category for Oc1cc2c(c(Cl)c1O)CCNCC2c1ccccc1 (centres undefined) in this test
Output line: inactive

Now let's try a different one.
Input line: Query: recorded result category for COc1cc2c(c(OC)c1OC)-c1ccc(OC)c(=O)cc1[C@@H](NC=O)CC2 in this test
Output line: active

###

Tested on: CRL-7250
Assay: Cytotoxic Profiling of Annotated Libraries Using Quantitative High-Throughput Screening (AID 1296008); also: % is scaled to controls: 0 for no effect and ±100 for the full control effect; nearly all actives have a fitted effect of over 60% in size
Conditions: Five cell lines viability, CellTiter-Glo ATP luminescence, 48-72 h; stronger effect = lower value
Method: Cell-based phenotypic screening is a commonly used approach to discover biological pathways, novel drug targets, chemical probes and high-quality hit-to-lead molecules. […] A pintool (Kalypsys) was used to transfer 23 nL of compound solution to the 1536-well assay plates. […] Plates were left at room temperature for 10 min before imaging the ATP-coupled luminescence using a ViewLux microplate imager (PerkinElmer, Waltham, MA).
Records with an inconclusive call do not appear.
assay.metric: max response (%)
Return type: number; implicit unit %.

Bench note, CRL-7250: entry COc1ccc(CN(C(=O)[C@@H](N)Cc2c(C)cc(C(N)=O)cc2C)[C@@H](C)c2ncc(-c3ccccc3)[nH]2)cc1C(=O)O , its max response = -8.53

Bench note, CRL-7250: entry CC(O)(c1ccccc1)C(Cc1ccc(Cl)cc1)n1cncn1 (stereo not given) , its max response = 0.336

Bench note, CRL-7250: entry COC1C=CC23c4cc5c(cc4COC2(O)CN(C)C3C1)OCO5 (stereo not given) , its max response = -6.96

Bench note, CRL-7250: entry C[C@@]1(CO)[C@H](O)CC[C@@]2(C)[C@H]1CC[C@H]1C[C@@H]3C[C@@]12CC[C@]3(O)CO , its max response = -2.86

Turning now to a further record.
Bench note, CRL-7250: entry CCC1CN2CCc3cc(OC)c(OC)cc3C2CC1CC1=NCCc2cc(O)c(OC)cc21 (stereo not given) , its max response = -0.358
